Where do the numbers come from? From PubChem BioAssay AID179.

tested on: CEM cells HIV-1 protection, formazan growth assay; assay: NCI AIDS Antiviral Assay; conditions: measured here: growth of uninfected CEM cells
pIC50: −log10 of the molar value.
I would appreciate it if you labelled entries Met when pIC50 is 4 or higher, otherwise Not met.

CC1=NNB(O)c2sccc21 : Not met
CCOC(=O)C1(Cc2ccccc2)Cc2cc3c(cc2C1=O)CCC3 (stereo not drawn) : Met
CC(=O)Nc1ccc(N)c2cc(S(=O)(=O)O)ccc12 : Not met
COc1c(-c2ccc(F)cc2)oc2c(CC(=O)O)cccc2c1=O : Not met
COC(=O)C1=C(C(=O)OC)C2(c3ccccc3)c3ccccc3C(=O)C1N2C1CCCCC1 (stereo not drawn) : Met

Asked: Is pIC50 at least 4? Consider `Cn1c(=O)[nH]c2nccnc2c1=O`
Given back: Not met

Asked: Is pIC50 at least 4? Consider `CCOC(=O)c1c(NC(=O)c2ccc(OC)cc2)sc2c1CCCC2`
Given back: Not met

Asked: Is pIC50 at least 4? Consider CC(C)C(F)(C(N)=O)C(=O)O (stereo not drawn)
Given back: Not met

Asked: Is pIC50 at least 4? Consider O=S(OO)c1cc(Cl)c(O)c(Cl)c1 (stereo not drawn)
Given back: Not met

Asked: Is pIC50 at least 4? Consider O=S1(=O)CC2(N3CCOCC3)CCCC21 (stereo not drawn)
Given back: Not met

Asked: Is pIC50 at least 4? Consider CC(C)=CC1(C)/C(=N\O)C(C)(CC(C)C)C(=O)N1O (stereo not drawn)
Given back: Not met

Asked: Is pIC50 at least 4? Consider CCCCCCCCCCOCCC(=O)OCC1OC(n2cc(C)c(=O)[nH]c2=O)CC1N=[N+]=[N-] (stereo not drawn)
Given back: Met

###

Record form. Attribute: EC50. Fill in for each entry.
test system: CEM cells HIV-1 protection, formazan growth assay; test: NCI AIDS Antiviral Assay

These solved cases illustrate the format of a correct answer.
O=[As](O)(O)c1ccc(-c2ccc([As](=O)(O)O)cc2)cc1 : > 200 µM
COc1ccc(/C=C2\CCc3ccccc3C2=O)cc1 : > 19.5 µM
COCCN1C(=O)C(NC(C)=O)[C@H]1COC(C)(C)C (stereo partly specified) : > 661 µM

Give EC50 for each listed item.
1. CNc1ncn(-c2c(C)cccc2C)c(=O)n1
2. CCOC1OC(CO[Si](C)(C)C(C)(C)C)C(O)CC1n1ccc(=O)[nH]c1=O (stereo unspecified)
3. CC(=O)Oc1cc(C)cc2ccc(-c3ccc4cc(C)cc(OC(C)=O)c4c3OC(C)=O)c(OC(C)=O)c12

Given back:
["> 200 µM", "> 200 µM", "> 200 µM"]

###

system: CEM cells HIV-1 protection, formazan growth assay; assay: NCI AIDS Antiviral Assay; settings: measured here: growth of uninfected CEM cells
Where a SMILES comes first, the peptide text is derived from it. The star is where a group is joined. Boc = CC(C)(C)OC(=O)*
Record form. Attribute: IC50. Fill in for each entry.

Give IC50 for each listed item.
1. COCOc1c(OC)c(C2(O)C(=O)N(C)c3ccccc32)c(OCOC)c(OC)c1C1(O)C(=O)N(C)c2ccccc21 (stereo unspecified)
2. CN(C)c1nncc2n[nH]nc12
3. COc1ccccc1N/C(=C\C(=O)C(=O)NC12CC3CC(CC(C3)C1)C2)c1ccccc1

Given back:
["42.7 µM", "> 200 µM", "> 200 µM"]

Give IC50 for each listed item.
1. O[C@H]1[C@H](O)[C@@H](O)CN2CC[C@H](O)[C@H]12
2. COC(=O)[C@H](Cc1ccccc1)NP(=O)(O)OCC1OC(n2cc(C)c(=O)[nH]c2=O)CC1N=[N+]=[N-] (stereo partly specified)
3. O=c1c2c(oc3cc(OCC4CO4)ccc13)CCC2 (stereo unspecified)

Given back:
1260 µM
10 µM
50.1 µM

Give IC50 for each listed item.
1. Nc1ccccc1-c1nc2c(ccc3ccccc32)[nH]1
2. O=c1cn[nH]c2cc(Cl)ccc12
3. CC(NC(=O)C1CCCN1C(=O)CNC(=O)OC(C)(C)C)C(=O)O (stereo not drawn) (Boc-Gly-Pro-Ala-OH; configuration not given here)
4. CN(C)c1ccc(Cc2cc3c(O)ccc(O)c3cc(Cc3ccc(N(C)C)cc3)c2=O)cc1

Given back:
1. 57.5 µM
2. > 117 µM
3. > 200 µM
4. 3.16 µM

Asked: # query: IC50 of entry `Cc1nc(C(N)=S)sc1C(=O)CC(=O)C(=O)Nc1cccc(Cl)c1C`
Given back: > 170 µM
